test system: cancer cell lines from the cancer cell line encyclopedia (CCLE); test: Cell line profiling (CLiP) proliferation experiment; assay type: cell-based; conditions: WM-88 cell line; skin; NS; read-out: Crossing Point
pIC50: −log10 of the molar value.
measurementLabel: pIC50

Query: Form field: reported pIC50 of CC(C)[C@@]12C[C@@H](O)[C@@](C)(O1)[C@@H]1CC[C@@H](C)[C@H]1[C@@H]2OC(=O)/C=C/c1ccccc1 [Englerin B]
Response: < 4.52

----------
tested on: cancer cell lines from the cancer cell line encyclopedia (CCLE); test: Cell line profiling (CLiP) proliferation experiment; assay type: cell-based; settings: Homo sapiens, KYSE-450, KYSE-450 (oesophagus); read-out: Crossing Point
measurementLabel: IC50

Query: Form field: reported IC50 of CC(C)[C@@]12C[C@@H](O)[C@@](C)(O1)[C@@H]1CC[C@@H](C)[C@H]1[C@@H]2OC(=O)/C=C/c1ccccc1
Response: > 30 µM

----------
tested on: cancer cell lines from the cancer cell line encyclopedia (CCLE); assay: Cell line profiling (CLiP) proliferation experiment; format: cell-based; settings: Homo sapiens, BV-173, BV-173 cells; read-out: Inflection Point
measurementLabel: EC50 (µM)
Your answer should be a plain number; it is taken to be in µM.

Query: Form field: reported EC50 of CC(C)[C@@]12C[C@@H](O)[C@@](C)(O1)[C@@H]1CC[C@@H](C)[C@H]1[C@@H]2OC(=O)/C=C/c1ccccc1
Response: 12.5

----------
test system: cancer cell lines from the cancer cell line encyclopedia (CCLE); test: Cell line profiling (CLiP) proliferation experiment; type: cell-based; conditions: Homo sapiens, NCI-H2452, cell line NCI-H2452; read-out: Crossing Point
pIC50: −log10 of the molar value.
measurementLabel: pIC50

Query: Form field: reported pIC50 of CC(C)[C@@]12C[C@@H](O)[C@@](C)(O1)[C@@H]1CC[C@@H](C)[C@H]1[C@@H]2OC(=O)/C=C/c1ccccc1
Response: < 4.52

----------
test system: cancer cell lines from the cancer cell line encyclopedia (CCLE); assay: Cell line profiling (CLiP) proliferation experiment; assay type: cell-based; details: DAN-G cells; read-out: Inflection Point
measurementLabel: pEC50
pEC50 (log units): -log10 of the concentration in mol/L.

Query: Form field: reported pEC50 of CC(C)[C@@]12C[C@@H](O)[C@@](C)(O1)[C@@H]1CC[C@@H](C)[C@H]1[C@@H]2OC(=O)/C=C/c1ccccc1
Response: 4.53

----------
test system: cancer cell lines from the cancer cell line encyclopedia (CCLE); assay: Cell line profiling (CLiP) proliferation experiment; assay type: cell-based; conditions: Homo sapiens, NCI-H838, NCI-H838 cells; read-out: Crossing Point
measurementLabel: IC50

Query: Form field: reported IC50 of CC(C)[C@@]12C[C@@H](O)[C@@](C)(O1)[C@@H]1CC[C@@H](C)[C@H]1[C@@H]2OC(=O)/C=C/c1ccccc1
Response: > 30 µM

----------
tested on: cancer cell lines from the cancer cell line encyclopedia (CCLE); test: Cell line profiling (CLiP) proliferation experiment; type: cell-based; conditions: OUMS-23, cell line OUMS-23; read-out: Inflection Point
measurementLabel: pEC50
pEC50 (log units): -log10 of the concentration in mol/L.

Query: Give recorded pEC50 with cancer cell lines from the cancer cell line encyclopedia (CCLE) for the following compound: CC(C)[C@@]12C[C@@H](O)[C@@](C)(O1)[C@@H]1CC[C@@H](C)[C@H]1[C@@H]2OC(=O)/C=C/c1ccccc1 [Englerin B]
Response: 4.75

Hey, just so you know, these numbers are from paper PMC4476799.
